# % inhibition annotations
- System: human Factor 11 mRNA
- test name: Antisense inhibition of human Factor 11 in HepG2 cells, lipofectin, 75 nM (Example 1)
- Type: cell-based
- applied conditions: 75 nM antisense oligonucleotide, ~24 h, relative to untreated control cells, gapmers targeted to SEQ ID NO: 2
- Experimental: Antisense oligonucleotides targeted to a Factor 11 nucleic acid were tested for their effects on Factor 11 mRNA in vitro. […] After a treatment period of approximately 24 hours, RNA was isolated from the cells and Factor 11 mRNA levels were measured by quantitative real time PCR. Factor 11 mRNA levels were adjusted according to total RNA content, as measured by RIBOGREEN. […]
Strand notation (5' to 3'): a small letter for the sugar, then the base; units joined by * are phosphorothioate-linked, units joined directly phosphodiester-linked; [ ] holds rarer units or linkages, { } end groups; capitals alone tell only the bases. e = 2'-O-(2-methoxyethyl) (MOE); [5mC] = 5-methylcytosine; d = 2'-deoxy (DNA)
A number alone suffices; assume %.

413506 (antisense eA*eT*eG*eG*eA*dA*dT*dT*dG*dT*dG*d[5mC]*dT*dT*dA*eT*eG*eA*eG*eT) [compound 413506] = 57

Data point: 413535 (antisense eG*eT*e[5mC]*eA*e[5mC]*dA*dT*dT*dT*dA*dA*dA*dA*dT*dT*eT*e[5mC]*e[5mC]*eA*eA) [compound 413535] ; % inhibition = 41

// % inhibition lookup, substance = 413505 (antisense eT*eG*eG*eG*eA*dA*dA*dG*d[5mC]*dT*dT*dT*d[5mC]*dA*dA*eT*eA*eT*eT*e[5mC]) [compound 413505] , result: 57
